Biological target: T1, Sld2 (Saccharomyces cerevisiae, UniProt P34252 1-453)
T1 sequence: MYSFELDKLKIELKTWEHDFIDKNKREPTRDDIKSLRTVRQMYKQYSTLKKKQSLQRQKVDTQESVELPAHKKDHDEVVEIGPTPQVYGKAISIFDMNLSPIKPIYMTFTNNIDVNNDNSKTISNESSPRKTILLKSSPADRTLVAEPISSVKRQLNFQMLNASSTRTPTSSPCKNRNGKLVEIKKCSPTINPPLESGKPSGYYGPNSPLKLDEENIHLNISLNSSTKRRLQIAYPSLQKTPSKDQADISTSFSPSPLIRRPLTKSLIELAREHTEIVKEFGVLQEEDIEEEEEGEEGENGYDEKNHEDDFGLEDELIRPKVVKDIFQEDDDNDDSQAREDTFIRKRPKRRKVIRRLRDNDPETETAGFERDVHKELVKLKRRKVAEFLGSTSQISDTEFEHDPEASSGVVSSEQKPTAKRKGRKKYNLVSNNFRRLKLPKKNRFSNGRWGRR
Assay: fluorescence anisotropy
value.kind: pKd
// field semantics: pKd = negative decimal log of concentration (mol/L)

## Input Look up pKd for this binder: FAM-ssARS1-1 (ssDNA) DNA: TTACATCTTGTTATTTTACAGATTTTATGTTTAGATCTTTTATGCTTGCTTTTCAAAAGGCCTGCAGGCAAGTGCACAAA
## Output 6.16

The origin of these recorded values is paper PMC3074145.
